test: RP, Waters ACQUITY Premier BEH C18, 100 × 2.1 mm, 1.7 µm, 40 °C, 0.3 to 0.4 mL/min, estimated dead time 0.73 min; A: water + 0.1% formic acid; B: acetonitrile + 0.1% formic acid; gradient (min/%B) 0/0.5 0.1/0.5 10/80 10.1/99.5 12/0.5 12.1/0.5 14.5/0.5; conditions: stereoisomer not certain
Readout label: LC retention time (min)
Answer in min, number only, no unit symbol.

Reference set, count: 5
INSERT INTO results (molecule, unit_abbrev, data_value) VALUES
  ('CCNC(=O)CC[C@H](N)C(=O)O [L-THEANINE]', 'min', 0.897),
  ('Cn1c(=O)[nH]c2[nH]c(=O)n(C)c2c1=O [1,7-DIMETHYLURIC ACID]', 'min', 2.39),
  ('O=C(O)CNC(=O)C=Cc1ccccc1 [CINNAMOYLGLYCINE]', 'min', 5.02),
  ('CCOC(=O)Cc1c[nH]c2ccccc12 [ETHYL 3-INDOLEACETATE]', 'min', 7.2),
  ('NCCOP(=O)(O)OP(=O)(O)OCC1OC(n2ccc(N)nc2=O)C(O)C1O (stereo not drawn) [CDP-ETHANOLAMINE]', 'min', 0.882);

Kindly review the next molecule as well.
// LC retention time lookup, key: CC1(C)C=Cc2c(ccc3c2OCC(c2ccc(O)cc2O)C3)O1 [(R)-GLABRIDIN]
7.48

====

assay: RP, Waters ACQUITY Premier BEH C18, 100 × 2.1 mm, 1.7 µm, 40 °C, 0.3 to 0.4 mL/min, estimated dead time 0.73 min; A: water + 0.1% formic acid; B: acetonitrile + 0.1% formic acid; gradient (min/%B) 0/0.5 0.1/0.5 10/80 10.1/99.5 12/0.5 12.1/0.5 14.5/0.5; settings: stereoisomer not certain
Labelling field: enter satisfied if recorded LC retention time is less than 4 min. Enter not satisfied if it equals or exceeds that cut-off.

Solved entries:
INSERT INTO assay_data (compound, answer_label) VALUES
  ('O=C1CCCC(C(=O)O)N1 (stereo not given)', 'satisfied'),
  ('Nc1ncnc2c1ncn2C1OC(COP(=O)(O)OS(=O)(=O)O)C(O)C1O (stereo not given) [ADENOSINE PHOSPHOSULFATE]', 'satisfied'),
  ('NC(Cc1cc(I)c(Oc2ccc(O)c(I)c2)c(I)c1)C(=O)O (stereo not given)', 'not satisfied'),
  ('CCCCCC=CCC=CCCCCCCCC(=O)O [LINOLEATE]', 'not satisfied'),
  ('CC(CCC(=O)O)C1CCC2C3C(O)C(O)C4CC(O)CCC4(C)C3CCC12C (stereo not given)', 'not satisfied');

API: query returns whether the compound falls strictly under 4 min in LC retention time. Query: Nc1ccccc1C(=O)CC(N)C(=O)O (stereo not given)
satisfied

API: query returns whether the compound falls strictly under 4 min in LC retention time. Query: O=C(O)CCCCCCCCCCCCCCC(=O)O
not satisfied

API: query returns whether the compound falls strictly under 4 min in LC retention time. Query: Cc1c[nH]c(=O)[nH]c1=O
satisfied

API: query returns whether the compound falls strictly under 4 min in LC retention time. Query: O=c1ccn(C2CC(O)C(COP(=O)(O)O)O2)c(=O)[nH]1 (stereo not given) [DEOXYURIDINE-MONOPHOSPHATE]
satisfied

API: query returns whether the compound falls strictly under 4 min in LC retention time. Query: C=C(C)C1Cc2c(ccc3c2OC2COc4cc(OC)c(OC)cc4C2C3=O)O1 (stereo not given)
not satisfied

API: query returns whether the compound falls strictly under 4 min in LC retention time. Query: O=c1c2cc(O)c(O)cc2oc2cc(O)c(C3OC(CO)C(O)C(O)C3O)c(O)c12 (stereo not given)
satisfied

API: query returns whether the compound falls strictly under 4 min in LC retention time. Query: CSCCC(NC(C)=O)C(=O)O (stereo not given)
not satisfied

====

assay: RP, Waters ACQUITY Premier BEH C18, 100 × 2.1 mm, 1.7 µm, 40 °C, 0.3 to 0.4 mL/min, estimated dead time 0.73 min; A: water + 0.1% formic acid; B: acetonitrile + 0.1% formic acid; gradient (min/%B) 0/0.5 0.1/0.5 10/80 10.1/99.5 12/0.5 12.1/0.5 14.5/0.5; details: stereoisomer not certain
Readout label: LC retention time (min)
Answer in min, number only, no unit symbol.

Reference set, count: 8
INSERT INTO results (molecule, readout_label, data_value) VALUES
  ('CC(=O)OCC[N+](C)(C)C [ACETYLCHOLINE]', 'LC retention time', 0.961),
  ('CCCCCC(N)C(=O)O (centres undefined) [2-AMINOHEPTANOATE]', 'LC retention time', 2.81),
  ('COc1c(O)cc2oc(-c3ccc(O)cc3)cc(=O)c2c1O [5,7-DIHYDROXY-2-(4-HYDROXYPHENYL)-6-METHOXY-4H-CHROMEN-4-ONE]', 'LC retention time', 6.08),
  ('CC=C1C(OC2OC(CO)C(O)C(O)C2O)OC=C(C(=O)OC)C1CC(=O)OCCc1ccc(O)c(O)c1 (centres undefined) [OLEUROPEIN]', 'LC retention time', 5.05),
  ('O=C(O)C(O)CO (centres undefined) [GLYCERATE]', 'LC retention time', 0.911),
  ('CCNC(=O)C1CC(C)CCC1C(C)C (centres undefined) [N-ETHYL-5-METHYL-2-(1-METHYLETHYL)-CYCLOHEXANECARBOXAMIDE]', 'LC retention time', 7.41),
  ('O=C(O)c1cc(=O)c2cccc(O)c2[nH]1 [XANTHURENATE]', 'LC retention time', 3.98),
  ('OCc1ccccc1OC1OC(CO)C(O)C(O)C1O (centres undefined) [SALICIN]', 'LC retention time', 2.95);

Kindly review the next molecule as well.
// LC retention time lookup, key: COc1cc(C=CC(=O)O)ccc1O [FERULATE]
5.17

====

test: RP, Waters ACQUITY Premier BEH C18, 100 × 2.1 mm, 1.7 µm, 40 °C, 0.3 to 0.4 mL/min, estimated dead time 0.73 min; A: water + 0.1% formic acid; B: acetonitrile + 0.1% formic acid; gradient (min/%B) 0/0.5 0.1/0.5 10/80 10.1/99.5 12/0.5 12.1/0.5 14.5/0.5; conditions: stereoisomer not certain
Items are presented alongside their recorded LC retention time.
Answer in min, number only, no unit symbol.

Reference set, count: 4
INSERT INTO assay_data (compound, data_value) VALUES
  ('Cn1c(=O)c2c([nH]c(=O)n2C)n(C)c1=O', 3.23),
  ('Nc1nc2c(ncn2C2OC(COP(=O)(O)O)C(O)C2O)c(=O)[nH]1 (stereo not given) [GUANOSINE MONOPHOSPHATE]', 1.57),
  ('COc1cc(C=CC(=O)CC(=O)C=Cc2ccc(O)c(OC)c2)ccc1O', 7.18),
  ('O=C(O)c1ccccc1 [BENZOATE]', 4.51);

// LC retention time lookup, key: COc1ccccc1C=CC=O
7.94

====

Items are presented alongside their recorded LC retention time.
experiment: RP, Waters ACQUITY Premier BEH C18, 100 × 2.1 mm, 1.7 µm, 40 °C, 0.3 to 0.4 mL/min, estimated dead time 0.73 min; A: water + 0.1% formic acid; B: acetonitrile + 0.1% formic acid; gradient (min/%B) 0/0.5 0.1/0.5 10/80 10.1/99.5 12/0.5 12.1/0.5 14.5/0.5; conditions: stereoisomer not certain
Answer in min, number only, no unit symbol.

// LC retention time lookup, key: COc1cc(CC(=O)O)ccc1O [HOMOVANILLATE]
4.66

// LC retention time lookup, key: NC(=O)CCC(NC(=O)Cc1ccccc1)C(=O)O (centres undefined) [PHENYLACETYLGLUTAMINE]
3.9

// LC retention time lookup, key: CCCCCC1CCCC(=O)O1 (centres undefined) [DELTA-DECALACTONE]
7.1

// LC retention time lookup, key: O=c1cc(-c2ccccc2)oc2ccccc12 [FLAVONE]
7.23

// LC retention time lookup, key: O=C(C=Cc1ccc(O)c(O)c1)OC1C(O)CC(O)(C(=O)O)CC1O (centres undefined) [CRYPTOCHLOROGENIC ACID]
3.67

====

assay: RP, Waters ACQUITY Premier BEH C18, 100 × 2.1 mm, 1.7 µm, 40 °C, 0.3 to 0.4 mL/min, estimated dead time 0.73 min; A: water + 0.1% formic acid; B: acetonitrile + 0.1% formic acid; gradient (min/%B) 0/0.5 0.1/0.5 10/80 10.1/99.5 12/0.5 12.1/0.5 14.5/0.5; conditions: stereoisomer not certain
Labelling field: enter rule met if recorded LC retention time is less than 2 min. Enter rule not met if it equals or exceeds that cut-off.

INSERT INTO results (compound, answer_label) VALUES
  ('O=C(O)CCCCC1SCC2NC(=O)NC21 (stereo not given)', 'rule not met'),
  ('NC(CCSSCCC(N)C(=O)O)C(=O)O (stereo not given)', 'rule met'),
  ('CC(=O)C(C)O (stereo not given)', 'rule not met'),
  ('O=C(O)CCCCCCC(=O)NCC(=O)O', 'rule not met'),
  ('CC(C)C(=O)OC(CC(=O)[O-])C[N+](C)(C)C (stereo not given)', 'rule not met');

API: query returns whether the compound falls strictly under 2 min in LC retention time. Query: CNC(=O)c1cccnc1 [N-METHYLNICOTINAMIDE]
rule met

API: query returns whether the compound falls strictly under 2 min in LC retention time. Query: O=c1[nH]c(=O)c2ncn(C3OC(COP(=O)(O)O)C(O)C3O)c2[nH]1 (stereo not given) [XANTHOSINE-MONOPHOSPHATE]
rule met

API: query returns whether the compound falls strictly under 2 min in LC retention time. Query: CC1NCCc2cc(O)c(O)cc21 (stereo not given)
rule not met

API: query returns whether the compound falls strictly under 2 min in LC retention time. Query: Nc1nc2ncc(CNc3ccc(C(=O)NC(CCC(=O)O)C(=O)O)cc3)nc2c(=O)[nH]1 (stereo not given) [FOLATE]
rule not met

API: query returns whether the compound falls strictly under 2 min in LC retention time. Query: Nc1nc2nc[nH]c2c(=O)[nH]1
rule met

API: query returns whether the compound falls strictly under 2 min in LC retention time. Query: CCCCCCCCCC(=O)OC(CC(=O)[O-])C[N+](C)(C)C (stereo not given)
rule not met

API: query returns whether the compound falls strictly under 2 min in LC retention time. Query: NC(Cc1ccc(O)cc1)C(=O)O (stereo not given)
rule not met

API: query returns whether the compound falls strictly under 2 min in LC retention time. Query: CC(C)C(=O)O [ISOBUTYRATE]
rule not met

API: query returns whether the compound falls strictly under 2 min in LC retention time. Query: O=C(O)c1cccnc1C(=O)O [QUINOLINATE]
rule met

API: query returns whether the compound falls strictly under 2 min in LC retention time. Query: CNCCc1c[nH]c2ccccc12
rule not met

API: query returns whether the compound falls strictly under 2 min in LC retention time. Query: O=C(O)C1=COC(OC2OC(CO)C(O)C(O)C2O)C2C(CO)=CCC12 (stereo not given)
rule met

API: query returns whether the compound falls strictly under 2 min in LC retention time. Query: Nc1nc2c(ncn2C2OC(COP(=O)(O)OP(=O)(O)OC3OC(CO)C(O)C(O)C3O)C(O)C2O)c(=O)[nH]1 (stereo not given) [GUANOSINE DIPHOSPHATE MANNOSE]
rule met

API: query returns whether the compound falls strictly under 2 min in LC retention time. Query: CC1C(=O)OC2C(O)C34C5OC(=O)C3(OC3OC(=O)C(O)C34C(C(C)(C)C)C5O)C12O (stereo not given) [GINKGOLIDE C]
rule not met
